PROTOCOL_NOTES: Microsolubility estimate by repeated addition of vehicle
Assay type: physicochemical
STATED_CONDITIONS: PEG 400, organic solvent or mixture, thermodynamic from solid; read-out: Microsolubility
MEASURED_QUANTITY: Solubility

A selection of reference data follows.
                                   molecule  measured_quantity        obs_value
0  CCOC(=O)N1c2cc3c(cc2[C@H](N(Cc2cc(C(F)(F)F)cc(C(F)(F)F)c2)C(=O)OC)C[C@@H]1C)CCC3         Solubility  50 to 100 mg/mL
1  CCC(CC)CC1(C(=O)Nc2ccccc2SC(=O)C(C)C)CCCCC1         Solubility      < 100 mg/mL
2  COC(=O)N(Cc1cc(C(F)(F)F)cc(C(F)(F)F)c1)[C@@H]1CC(C2CC2)N(C(=O)OC(C)C)c2ccc(C(F)(F)F)cc21 (stereo in doubt)         Solubility      < 160 mg/mL

Moving on to another molecule below.
Query :: Need Solubility, item CCOC(=O)N1c2cc(C(F)(F)F)ccc2[C@@H](N(Cc2cc(C(F)(F)F)cc(C(F)(F)F)c2)C(=O)OC)C[C@H]1C
Result :: < 20 mg/mL

* * *

PROTOCOL_NOTES: PK in rat, oils or preformed emulsions by oral gavage
Set-up: species or system Sprague Dawley rats
STATED_CONDITIONS: Sprague-Dawley, in vivo, 375 mg/kg, crystalline ethanolate, Olive oil/caprylic acid/Cremophor/water 10/30/10/50, 375 mg/kg
MEASURED_QUANTITY: Cmax
Kindly write the number and append the unit.

Query :: Need Cmax, item CCOC(=O)N1c2ccc(C(F)(F)F)cc2[C@@H](N(Cc2cc(C(F)(F)F)cc(C(F)(F)F)c2)C(=O)OC)C[C@H]1CC
Result :: 4100 ng/mL

* * *

PROTOCOL_NOTES: PK in monkeys
Assay type: in vivo, cynomologous monkeys
STATED_CONDITIONS: monkey, in vivo, oral, 100 mg/kg, amorphous anhydrous, Miglyol, 100 mg/kg, read-out: Cmax
MEASURED_QUANTITY: Cmax

Query :: Need Cmax, item CCOC(=O)N1c2ccc(C(F)(F)F)cc2[C@@H](N(Cc2cc(C(F)(F)F)cc(C(F)(F)F)c2)C(=O)OC)C[C@H]1CC
Result :: ~1600 ng/mL

* * *

PROTOCOL_NOTES: Microsolubility estimate by repeated addition of vehicle
Type: physicochemical
STATED_CONDITIONS: Miglyol 812, oil or lipid, thermodynamic from solid; read-out: Microsolubility
MEASURED_QUANTITY: Solubility

In [3]: df
Out[3]:
                                   compound    obs_value
0  CCOC(=O)N1c2ccc(C(F)(F)F)cc2[C@@H](N(C=O)Cc2cc(C(F)(F)F)cc(C(F)(F)F)c2)C[C@H]1CC  > 300 mg/mL
1  CCCOC(=O)N1c2ccc(C(F)(F)F)cc2[C@@H](N(Cc2cc(C(F)(F)F)cc(C(F)(F)F)c2)C(=O)OC)C[C@H]1CC  < 100 mg/mL
2  CCOC(=O)N1c2ccc(C(F)(F)F)cc2[C@@H](N(Cc2cc(C(F)(F)F)cc(C(F)(F)F)c2)C(=O)OC)C[C@H]1CC  > 300 mg/mL
3  CCCOC(=O)N1c2ccc(C(F)(F)F)cc2[C@@H](N(Cc2cc(C(F)(F)F)cc(C(F)(F)F)c2)C(C)=O)CC1C1CC1 (stereo in doubt)  > 300 mg/mL

Query :: Need Solubility, item CCOC(=O)N1c2ccc(C(F)(F)F)cc2[C@@H](N(C=O)Cc2cc(C(F)(F)F)cc(C(F)(F)F)c2)C[C@H]1C
Result :: > 300 mg/mL

Query :: Repeat with CCOC(=O)N1c2ccc(C(F)(F)F)cc2[C@@H](N(Cc2cc(C(F)(F)F)cc(C(F)(F)F)c2)C(C)=O)C[C@H]1C
Result :: > 300 mg/mL

Query :: Repeat with CCOC(=O)N1c2ccc(C(F)(F)F)cc2[C@@H](N(Cc2cc(C(F)(F)F)cc(C(F)(F)F)c2)C(=O)OC)C[C@H]1C
Result :: > 300 mg/mL

Query :: Repeat with CCCOC(=O)N1c2ccc(C(F)(F)F)cc2[C@@H](N(C=O)Cc2cc(C(F)(F)F)cc(C(F)(F)F)c2)CC1C1CC1 (stereo in doubt)
Result :: > 300 mg/mL

Source: patent US6962931B2
